# TARGET: Ca^2+/CaM-C (Homo sapiens)
# Construct: ^15N-labled samples of the isolated Ca^2+/CaM-N and Ca^2+/CaM-C domains; made in house
# TEST_METHOD_NOTES: NMR titration (2D 1H-15N HSQC) of isolated C-terminal lobe
# Type: binding
# DETAILS: NMR HSQC titration, one-site model, 35°C, 50 mM Tris-d11 (pH 7.0), 100 mM NaCl, 5 mM CaCl2; 15N-Ca^2+/CaM-C 150 μM
Where no end group is shown, it is not given here.
METRIC_NAME: Kd (µM)
Express it in µM; write the number only.

-- ask Let me know recorded Kd for SDVDLSKYITTIAGVMTLSQVKGFVRKNGVN [Fas-Pep1] , thanks.
-- reply 76
